Entry source: ChEMBL document CHEMBL1135421

- assayed_system: Alpha-2C adrenergic receptor (Homo sapiens, UniProt P18825)
- Sequence (P18825 whole entry): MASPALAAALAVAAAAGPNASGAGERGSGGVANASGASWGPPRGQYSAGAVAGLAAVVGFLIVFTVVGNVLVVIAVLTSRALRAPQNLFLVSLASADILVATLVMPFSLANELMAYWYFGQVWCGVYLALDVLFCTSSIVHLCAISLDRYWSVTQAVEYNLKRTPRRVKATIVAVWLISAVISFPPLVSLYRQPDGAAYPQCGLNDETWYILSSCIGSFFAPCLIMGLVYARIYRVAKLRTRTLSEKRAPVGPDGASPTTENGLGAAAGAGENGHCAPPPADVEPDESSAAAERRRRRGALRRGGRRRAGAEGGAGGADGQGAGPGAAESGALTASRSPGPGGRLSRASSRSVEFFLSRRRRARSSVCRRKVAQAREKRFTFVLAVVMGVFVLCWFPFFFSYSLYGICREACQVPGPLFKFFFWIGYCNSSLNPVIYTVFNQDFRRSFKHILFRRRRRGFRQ
- protocol_details: Agonist potency at Alpha-2C adrenergic receptor assayed in CHO cells expressing human Alpha-2C adrenergic receptor
- Format: functional, cell-based
So basically, if EC50 comes in under 100 nM it's T, and if it's 100 nM or more it's F.

(Q) For this compound, is EC50 lower than 100 nM? CS(=O)(=O)c1cccc(F)c1NCC1=NCCN1
(A) F

(Q) EC50 strictly < 100 nM for this compound? CS(=O)(=O)c1cc(Cl)ccc1NCC1=NCCN1
(A) F

(Q) Please let me know if CSc1ccc(C(F)(F)F)cc1NCC1=NCCN1 shows EC50 below 100 nM.
(A) T

(Q) Lab note: EC50 threshold 100 nM. Does this compound come in strictly under it? CS(=O)(=O)c1ccccc1NCC1=NCCN1
(A) F

(Q) Please indicate whether the reported EC50 of CS(=O)(=O)c1ccc(F)cc1NCC1=NCCN1 is strictly below 100 nM.
(A) F

(Q) Take the compound O=S1(=O)CCCc2cccc(NCC3=NCCN3)c21 and say whether its EC50 is less than 100 nM.
(A) F

(Q) EC50 under 100 nM? Item: CCSc1ccccc1NCC1=NCCN1
(A) T

(Q) I wonder whether Cc1ccc(S(C)(=O)=O)c(NCC2=NCCN2)c1 has EC50 below 100 nM. Can you tell?
(A) F

(Q) For CS(=O)(=O)Nc1ccc(F)c([C@@H](O)CN)c1 , is the recorded EC50 below the cut-off of 100 nM?
(A) F

(Q) Does the reported EC50 of the following compound sit strictly below 100 nM? CS(=O)(=O)c1ccc(C(F)(F)F)cc1NCC1=NCCN1
(A) F

(Q) Is 100 nM strictly greater than the compound's reported EC50? compound: CSc1ccc(C)cc1NCC1=NCCN1
(A) T

(Q) Dear colleague, could you confirm whether EC50 of CS(=O)(=O)c1ccc(Cl)cc1NCC1=NCCN1 falls below 100 nM? Thanks.
(A) F

(Q) Find out if reported EC50 for CSc1ccc(F)cc1NCC1=NCCN1 is less than 100 nM
(A) T

(Q) Problem: For the compound CSc1ccc(Cl)cc1NCC1=NCCN1 , is EC50 under 100 nM?
(A) T

---

- assayed_system: Alpha-2C adrenergic receptor (Homo sapiens, UniProt P18825)
- protocol_details: Agonist potency at Alpha-2C adrenergic receptor expressed in CHO cells
- Type: functional, cell-based
Exercise: for every item that follows, state its recorded EC50.

EC50 reported for this compound CSc1c(F)cccc1NCC1=NCCN1 : 15.8 nM

In plain terms, CC(C)S(=O)(=O)c1ccccc1NCC1=NCCN1 has a documented EC50 of > 10000 nM

Briefly, EC50 measured for CS(=O)(=O)c1c(F)cccc1NCC1=NCCN1 : 501 nM

Reported EC50 ( CS(=O)(=O)c1cc(F)ccc1NCC1=NCCN1 ) = > 10000 nM

In plain terms, C[S+]([O-])c1ccccc1NCC1=NCCN1 (stereo not drawn) has a documented EC50 of > 10000 nM

Given item CCS(=O)(=O)c1ccccc1NCC1=NCCN1 , the value recorded as its EC50 is 5010 nM

Notebook: CSc1ccccc1NCC1=NCCN1 , EC50 read as 5.62 nM

Entry CC(C)Sc1ccccc1NCC1=NCCN1 , EC50 reported as 28.2 nM

---

- assayed_system: Alpha-1B adrenergic receptor (Homo sapiens)
- Sequence (P35368 whole entry): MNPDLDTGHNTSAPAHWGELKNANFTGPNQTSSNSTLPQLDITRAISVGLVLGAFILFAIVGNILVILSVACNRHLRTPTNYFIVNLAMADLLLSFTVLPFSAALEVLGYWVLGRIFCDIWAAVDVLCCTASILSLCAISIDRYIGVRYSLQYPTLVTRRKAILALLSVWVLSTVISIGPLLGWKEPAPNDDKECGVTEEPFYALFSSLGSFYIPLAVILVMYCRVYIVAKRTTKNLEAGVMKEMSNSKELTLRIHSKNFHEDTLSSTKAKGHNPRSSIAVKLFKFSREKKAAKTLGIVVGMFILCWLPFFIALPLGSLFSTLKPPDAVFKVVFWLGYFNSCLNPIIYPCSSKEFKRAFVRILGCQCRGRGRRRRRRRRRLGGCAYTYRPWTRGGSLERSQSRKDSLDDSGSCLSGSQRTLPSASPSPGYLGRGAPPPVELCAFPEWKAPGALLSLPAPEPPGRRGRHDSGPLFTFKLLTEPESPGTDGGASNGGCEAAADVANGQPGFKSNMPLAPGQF
- protocol_details: Agonist potency at alpha-1b adrenoceptors assayed in rat-1 fibroblasts expressing human Alpha-1B adrenergic receptor
- Type: functional
pEC50: −log10 of the molar value.
value_kind: pEC50

Summary for this compound, CS(=O)(=O)c1cc(Cl)ccc1NCC1=NCCN1 : pEC50 is < 4.00

---

- assayed_system: UniProtKB P08913
- protocol_details: Efficacy as percentage of the maximal effect observed for nonselective agonist UK-14304 in CHO cells expressing human Alpha-2A adrenergic receptor
- Format: functional, cell-based
Give Max for every item shown.
State the answer as a number, implicitly in %.

Lab note: measured Max of CS(=O)(=O)c1c(F)cccc1NCC1=NCCN1 was 64

Lab book: Max of CS(=O)(=O)c1cc(F)ccc1NCC1=NCCN1 noted as 19

Noted for CSc1ccc(C)cc1NCC1=NCCN1 : its Max reads 87

Consider COc1ccc(S(C)(=O)=O)c(NCC2=NCCN2)c1 . Its measured Max is 16

Kindly note the recorded Max for CCSc1ccccc1NCC1=NCCN1 , which is 67

Entry under test: CS(=O)(=O)c1ccc(F)cc1NCC1=NCCN1 . Its Max was 18

Max for CS(=O)(=O)c1cc(Cl)ccc1NCC1=NCCN1 is 38

response.value for COc1ccc(SC)c(NCC2=NCCN2)c1 (field: Max) = 52

// sample Cc1ccc(S(C)(=O)=O)c(NCC2=NCCN2)c1 , its Max was 24

Recorded result, CSc1cc(F)ccc1NCC1=NCCN1 , Max: 47

Measured Max of Cc1cc(C(C)(C)C)c(O)c(C)c1CC1=NCCN1 : 88

For this molecule ( CCCS(=O)(=O)c1ccccc1NCC1=NCCN1 ), measured Max is 23

get_value(item= CSc1ccccc1NCC1=NCCN1 , readout=Max) returns 76

// Max value for CS(=O)(=O)c1cccc(F)c1NCC1=NCCN1 : 38

Input C[S+]([O-])c1ccccc1NCC1=NCCN1 (stereo unspecified) . Output Max: 21

Short answer for CS(=O)(=O)Nc1ccc(F)c([C@@H](O)CN)c1 : Max was 34

Record O=S1(=O)CCCc2cccc(NCC3=NCCN3)c21 . Reported Max: 29

get_value(item= CSc1ccc(C(F)(F)F)cc1NCC1=NCCN1 , readout=Max) returns 40

Note to self: Max recorded for CC(C)Sc1ccccc1NCC1=NCCN1 was 64

# Max (molecule: CS(=O)(=O)c1ccc(C(F)(F)F)cc1NCC1=NCCN1 ) is 33

Record summary for CSc1ccc(Cl)cc1NCC1=NCCN1 : reported Max = 93

Record CSc1ccc(F)cc1NCC1=NCCN1 , field Max: 96

Max in this record for CS(=O)(=O)c1ccccc1NCC1=NCCN1 : 11

// CCS(=O)(=O)c1ccccc1NCC1=NCCN1 : Max value = 10

Reported Max for CS(=O)(=O)c1ccc(Cl)cc1NCC1=NCCN1 was 42

Note to self: Max recorded for CSc1c(F)cccc1NCC1=NCCN1 was 102

---

- assayed_system: Alpha-2A adrenergic receptor (Homo sapiens)
- Sequence (P08913 whole entry): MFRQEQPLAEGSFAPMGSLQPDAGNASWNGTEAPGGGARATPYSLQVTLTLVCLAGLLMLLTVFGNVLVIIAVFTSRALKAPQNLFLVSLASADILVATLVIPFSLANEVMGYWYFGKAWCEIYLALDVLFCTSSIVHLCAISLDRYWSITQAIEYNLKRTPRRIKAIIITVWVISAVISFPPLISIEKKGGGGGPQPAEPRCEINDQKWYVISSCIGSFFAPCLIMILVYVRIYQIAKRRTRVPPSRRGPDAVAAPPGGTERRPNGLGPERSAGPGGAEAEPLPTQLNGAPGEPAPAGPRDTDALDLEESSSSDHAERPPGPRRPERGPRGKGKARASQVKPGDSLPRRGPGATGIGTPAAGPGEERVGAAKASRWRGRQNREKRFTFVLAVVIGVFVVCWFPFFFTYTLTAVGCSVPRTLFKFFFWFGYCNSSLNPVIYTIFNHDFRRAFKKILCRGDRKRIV
- protocol_details: Agonist potency at Alpha-2A stably expressed in CHO cells.
- Assay type: functional, cell-based
value_kind: EC50

For CS(=O)(=O)c1ccc(Cl)cc1NCC1=NCCN1 the compound record lists EC50 as > 10 µM

Per the record, CS(=O)(=O)Nc1ccc(F)c([C@@H](O)CN)c1 [NS-49] has EC50 of > 10 µM

Briefly, EC50 measured for CSc1ccc(Cl)cc1NCC1=NCCN1 : 0.00631 µM

Value of measured EC50 for the entry CS(=O)(=O)c1ccc(C(F)(F)F)cc1NCC1=NCCN1 : > 10 µM

Entry under test: CS(=O)(=O)c1cccc(F)c1NCC1=NCCN1 . Its EC50 was > 10 µM

The compound listed as CSc1ccc(F)cc1NCC1=NCCN1 shows EC50 equal to 0.0251 µM

The compound listed as CS(=O)(=O)c1ccccc1NCC1=NCCN1 shows EC50 equal to > 10 µM

So for CSc1ccc(C)cc1NCC1=NCCN1 , the logged EC50 turned out to be 0.0251 µM

Notebook: O=S1(=O)CCCc2cccc(NCC3=NCCN3)c21 , EC50 read as > 10 µM

Note to self: EC50 recorded for CSc1cc(F)ccc1NCC1=NCCN1 was 0.316 µM

Given item CS(=O)(=O)c1ccc(F)cc1NCC1=NCCN1 , the value recorded as its EC50 is > 10 µM

Field EC50 (entry CSc1ccc(C(F)(F)F)cc1NCC1=NCCN1 ) reads > 10 µM

So for CS(=O)(=O)c1cc(Cl)ccc1NCC1=NCCN1 , the logged EC50 turned out to be > 10 µM

The recorded EC50 for Cc1ccc(S(C)(=O)=O)c(NCC2=NCCN2)c1 is > 10 µM

---

pKi, Alpha-2C adrenergic receptor (Homo sapiens, UniProt P18825): measured values
Answer as the number alone; pKi is minus log10 of concentration in mol/L.

The recorded pKi for CSc1ccc(C(F)(F)F)cc1NCC1=NCCN1 is 6.22

Form field pKi, entry CS(=O)(=O)c1ccc(Cl)cc1NCC1=NCCN1 : 5.32

pKi reading for CCSc1ccccc1NCC1=NCCN1 : 6.57

Looking up CS(=O)(=O)c1c(F)cccc1NCC1=NCCN1 , I see its pKi listed as 6.59

Lookup result for CSc1ccc(Cl)cc1NCC1=NCCN1 ; measured pKi: 6.77

Summary for this compound, CC(C)Sc1ccccc1NCC1=NCCN1 : pKi is 6.78

Value of pKi reported for the compound CS(=O)(=O)c1cc(Cl)ccc1NCC1=NCCN1 is 5.40

// CSc1ccc(C)cc1NCC1=NCCN1 : pKi value = 6.70

Consider CSc1ccc(F)cc1NCC1=NCCN1 . Its measured pKi is 6.94

The compound listed as O=S1(=O)CCCc2cccc(NCC3=NCCN3)c21 shows pKi equal to 5.57
